# tested_on: T1, human FcRn/b2M (human, UniProt P61769 21-119, biotinylated)
# T1 construct: bought recombinant biotinylated protein (ACRO FCM-H82W4 or Immunitrack ITF01); also called hFcRn; hFcRn/hb2M
# experiment_summary: SPR pH 7.4;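 also: surface plasmon resonance kinetics, periplasmic extracts diluted 1:10 flowed over immobilized target at 25 °C, 120 s association then 600–3600 s dissociation, buffer with 150 mM NaCl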
Documented koff across a set of binders
Hi! Could you send only the number? It should be in s⁻¹, unit omitted.

>>> result("T0263018B11 S31Q (VHH, name in Kabat numbering, FLAG3-His6 tagged) VHH: EVQLVESGGGVVQPGGSLRLSCAASGFTFSQYAMYWVRQAPGKGLEWVSAISSGGGSTDYADSVKGRFTISRDNSKNTLYLQMNSLRPEDTALYYCAADTLYTSLTWYSYWGQGTLVTVSS")
0.017

Now for the binder whose koff we want.
QUERY: Would you kindly share the measured koff for T0263018B11 T57I (VHH, name in Kabat numbering, FLAG3-His6 tagged) VHH: EVQLVESGGGVVQPGGSLRLSCAASGFTFSSYAMYWVRQAPGKGLEWVSAISSGGGSIDYADSVKGRFTISRDNSKNTLYLQMNSLRPEDTALYYCAADTLYTSLTWYSYWGQGTLVTVSS ?
RESULT: 0.049

The measurements presented in this section are drawn from patent US20240132624A1.
